test target: Hck (UniProt P08631)
Sequence (P08631 whole entry, looked up): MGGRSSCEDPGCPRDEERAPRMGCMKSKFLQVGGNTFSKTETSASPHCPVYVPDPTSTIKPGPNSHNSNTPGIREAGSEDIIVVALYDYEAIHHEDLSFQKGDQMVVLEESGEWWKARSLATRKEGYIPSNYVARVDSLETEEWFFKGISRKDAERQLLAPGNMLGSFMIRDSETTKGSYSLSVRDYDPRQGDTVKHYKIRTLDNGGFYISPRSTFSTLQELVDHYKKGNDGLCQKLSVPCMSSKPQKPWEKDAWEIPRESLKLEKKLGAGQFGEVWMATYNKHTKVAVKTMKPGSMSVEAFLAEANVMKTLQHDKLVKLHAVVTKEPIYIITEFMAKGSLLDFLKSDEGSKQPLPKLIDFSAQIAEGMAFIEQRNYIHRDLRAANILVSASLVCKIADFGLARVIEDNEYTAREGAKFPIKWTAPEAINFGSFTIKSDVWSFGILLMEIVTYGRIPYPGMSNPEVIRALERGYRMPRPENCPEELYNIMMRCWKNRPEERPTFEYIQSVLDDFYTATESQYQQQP
protocol: phosphorylation enrichment, bacterial display (enrichment ratio); higher = better substrate or ligand; peptides without Tyr show the background;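 note: 11-residue human phosphosite peptides and single-mutation variants displayed on the E. coli surface, counted by deep sequencing, each peptide's frequency after selection divided by its frequency in the unselected input library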;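 note: frequency after pTyr selection over input frequency; kinase dosed for 20-30% of maximal phosphorylation in three min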
Some sequences, each annotated with its measured phosphorylation enrichment.
property name: phosphorylation enrichment

sequence code	property name	measured number
LVRAFYCERRR [CARD11_Y970]	phosphorylation enrichment	1.14
FNDSAYNQQLI [ZPLD1_Y198_T197A_YF]	phosphorylation enrichment	0.455
ILGRFYETSSI [PAX2_Y73_G76S_YF]	phosphorylation enrichment	0.531
VVQGIYGFHHF [UFSP2_Y285_YF]	phosphorylation enrichment	8.93
TFFQMYDKGLV [IARS2_Y231_YF]	phosphorylation enrichment	1.06
NKHTNYTMEHI [ACTN1_Y708]	phosphorylation enrichment	0.384
KASRKYFAMKI [AKT3_Y173_G171R_YF]	phosphorylation enrichment	0.388
